target-or-test-system: Btk (Homo sapiens, UniProt Q06187)
Construct: purchased Promega (Madison, Wis.)
Sequence (Q06187 whole entry): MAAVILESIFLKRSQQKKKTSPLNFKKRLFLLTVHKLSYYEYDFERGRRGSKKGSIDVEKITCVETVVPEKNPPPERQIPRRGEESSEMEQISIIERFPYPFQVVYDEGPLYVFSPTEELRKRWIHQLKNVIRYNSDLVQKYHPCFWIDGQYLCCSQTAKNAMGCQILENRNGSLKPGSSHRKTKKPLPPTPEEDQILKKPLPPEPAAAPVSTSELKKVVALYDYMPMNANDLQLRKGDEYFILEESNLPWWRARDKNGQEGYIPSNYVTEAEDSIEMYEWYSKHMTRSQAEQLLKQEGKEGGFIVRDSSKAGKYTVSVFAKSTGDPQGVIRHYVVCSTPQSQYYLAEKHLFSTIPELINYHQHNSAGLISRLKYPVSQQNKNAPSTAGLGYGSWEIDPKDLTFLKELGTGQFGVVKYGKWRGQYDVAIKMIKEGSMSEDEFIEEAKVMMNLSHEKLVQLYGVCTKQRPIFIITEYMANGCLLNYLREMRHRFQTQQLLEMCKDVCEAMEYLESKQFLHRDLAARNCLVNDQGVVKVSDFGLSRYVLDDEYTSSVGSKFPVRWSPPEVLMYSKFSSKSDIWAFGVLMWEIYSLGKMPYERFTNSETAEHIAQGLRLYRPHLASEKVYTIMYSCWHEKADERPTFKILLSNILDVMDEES
test-summary: Btk kinase assay (ADP-Glo)
Format: biochemical
measurement-parameters: ADP-Glo Btk kinase assay kit; ATP 1.2 μM; 60 minutes at room temperature
endpoint: IC50 (µM)

See these solved cases before continuing.
C=CC(=O)N1CCC(Nc2ncnc3[nH]c(C#CCOc4ccccc4OC)nc23)C1 (stereo not shown) ... 0.001
O=C(C1CC1)N1CC[C@@H](Nc2ncnc3[nH]c(C#CCOc4ccccc4F)cc23)C1 ... 0.578
O=C([C@H]1C[C@H]1F)N1CC[C@@H](Nc2ncnc3[nH]c(C#CCOc4ccccc4F)cc23)C1 ... 0.346
C=CC(=O)N1CC[C@@H](Nc2ncnc3[nH]c(C#CCOc4ccccc4Cl)cc23)C1 ... 0.00014
C=CC(=O)N1CC[C@@H](Nc2ncnc3[nH]c(C#Cc4ccc5ncccc5c4)cc23)C1 ... 0.145
C=CC(=O)N1CC[C@@H](Nc2ncnc3[nH]c(C#CCOc4cccc(F)c4Cl)nc23)C1 ... 0.032
C=CC(=O)N1CCN(c2ncnc3[nH]c(C#CCOc4ccccc4)cc23)CC1 ... 0.109
C=CC(=O)N1CC[C@@H](Nc2ncnc3[nH]c(C#CCOc4cccc5sccc45)cc23)C1 ... 0.148
C=CC(=O)N1CC[C@@H](Nc2ncnc3[nH]c(C#CCOc4ccccc4C(F)(F)F)cc23)C1 ... 0.043
C=CC(=O)N1CC[C@@H](Nc2ncnc3[nH]c(C#CCOc4ccccc4OC)cc23)C1 ... 0.0011

a = C=CC(=O)N1CCC[C@@H](Nc2ncnc3[nH]c(C#Cc4ccc5c(c4)OCO5)cc23)C1
b = C=CC(=O)N1CC[C@@H](Nc2ncnc3[nH]c(C#CCOc4cc(F)ccc4F)cc23)C1
c = C=CC(=O)N1CCC(Nc2ncnc3[nH]c(C#CCOc4ccccc4)nc23)C1 (stereo not shown)
d = C=CC(=O)N1CC[C@@H](Nc2ncnc3[nH]c(C#Cc4ccc(Cl)c(Cl)c4)cc23)C1
e = C=CC(=O)N1CC[C@@H](Nc2ncnc3[nH]c(C#Cc4ccc5ccccc5c4)cc23)C1
// query Please rank these molecules by IC50 in descending order. # output: labels, in the requested order
// result b, a, e, c, d
(b: 0.043 µM, a: 0.027 µM, e: 0.01 µM, c: 0.0026 µM, d: 0.0002 µM)
